# System: SNB-75 CNS
# test.summary: NCI tumour cell line growth inhibition, 48 h; in the data active = GI50 below about 0.43 µM; inactive = the rest
Pick one: active, inactive

Q: # fetch the recorded call for N#CC1(c2ccc(NC(=O)c3cccnc3NCc3ccncc3)cc2)CCCC1 here
A: inactive

Q: // param item: O=C1NN(C2=NNC3(C(=O)N2)c2ccccc2-c2ccccc23)C(c2ccccc2)=N/C1=C/c1ccc(Cl)cc1 ; yields the recorded call
A: inactive

Q: Outcome? CCCCCCCCCCCC[N+]1(CCCCCCCCCCCC)CCCC(C)C1 (stereo not drawn)
A: active

Q: What did this assay record as the result for O=C1C=C[C@H](O)[C@@]2(CO)O[C@@H]12 ?
A: inactive

Q: Record request — test call for COc1ccc2sc3c(NCCCN)nc4ccccc4c3c(=O)c2c1
A: inactive

Q: Just curious, what result did Cc1c(C(=N)C(C#N)C#N)c(=N)oc2c1ccc1ccccc12 get here?
A: inactive

Q: Assay result, entry COc1cc2c(cc1Nc1nc(N3CCc4ccccc43)c3cc[nH]c3n1)N(C(=O)CN(C)C)CC2 — outcome?
A: inactive

Q: Which outcome did this test record for the compound C[C@]12CC[C@H]3[C@@H](CCC4=CC(=O)CC[C@@]43C)[C@@H]1CC[C@@H]2c1csc(N)n1 ?
A: inactive

---

Would you mind telling me the reported TGI of each entry?
# Test system: SF-295 CNS
# test.summary: NCI tumour cell line growth inhibition, 48 h

Q: For the molecule O=c1c2ccccc2sc2c(CO)ccc(NCCN3CCCCC3)c12 , what TGI is on record?
A: 17.4 µM

Q: Need TGI, item NCCN1CCCCCc2ccccc21
A: > 10 µM

Q: If you can, please state the reported TGI value of CCCCCCCC(=O)OCC(COC(=O)C(C)(C)C)OC(=O)Cc1ccccc1 (configuration not stated) .
A: > 100 µM

Q: TGI for COc1ccc(CNc2cnc3ccc(N)cc3n2)cc1 ?
A: > 100 µM

Q: Which TGI is reported for this molecule? Cn1nc(-c2ccc(S(=O)(=O)/N=C(\NN)Nc3ccc(Cl)cc3)s2)cc1C(F)(F)F
A: 31.3 µM

Q: I have this molecule here, O=C(/C=C/c1ccc(Cl)cc1)Oc1ccc(C=C2CCC/C(=C\c3ccc(OC(=O)/C=C/c4ccc(Cl)cc4)cc3)C2=O)cc1 , and I need its recorded TGI.
A: > 100 µM

Q: TGI for Cc1ccc2c(c1)CN1c3ccc(C)cc3CN2C1c1ccccc1O ?
A: > 100 µM

Q: What value of measured TGI is listed for COc1ccc(C2Oc3ccc(Cl)cc3C=C2[N+](=O)[O-])cc1 (configuration not stated) ?
A: > 100 µM

Q: For the molecule CC(=O)c1ccc(Oc2c3ccccc3nc3ccccc23)cc1 , what TGI is on record?
A: 28.2 µM

Q: TGI for O=[N+]([O-])c1ccc(Cl)c2c([N+](=O)[O-])cccc12 ?
A: > 10 µM

Q: Please look up its TGI: CCOC(=O)c1nc(C)oc1C(F)(F)F
A: > 100 µM

Q: Which TGI value is on record for COC1OC(C)C(NC(=O)OCC(Cl)(Cl)Cl)C2OC(C)(C)OC12 (configuration not stated) ?
A: > 100 µM

Q: What value of TGI has been recorded for this entry: Cc1c(C(=N)C(C#N)C#N)c(=N)oc2c1ccc1ccccc12
A: > 100 µM

Q: Suppose we examine the molecule CCCCCOc1ccc(/C=N/Nc2cc(C)nc3ccc(Cl)cc23)cc1 ; what TGI value has been reported?
A: 3.34 µM

Q: What TGI value was documented for this molecule, c1ccc(C2=NC3OC2c2ccccc23)cc1 (configuration not stated) ?
A: > 10 µM

Q: Which measured TGI value corresponds to N#CNC(N)=NCc1ccccc1 ?
A: > 100 µM

Q: Could you tell me which TGI is on file for Cc1ccc(S(=O)(=O)OCC/C(=C\[Si](C)(C)C)c2ccccc2)cc1 ?
A: > 100 µM

Q: Query: TGI; subject: O=C1Oc2ccccc2C(=O)/C1=C1/C=C(c2ccccc2)SS1
A: > 100 µM

Q: Could you share which TGI value was measured for CCOC(=O)CSc1nc(N)c2c(-c3ccccc3)c3c(nc2n1)CCCC3 ?
A: > 100 µM

Q: Need TGI, item Cn1c2ccccc2c2ccc3c(c21)C(=O)c1ccc2c4ccccc4n(C)c2c1C3=O
A: > 100 µM

Q: For N#CC1c2ccccc2C=CN1C(=O)CCCl (configuration not stated) , what is its reported TGI?
A: > 87.5 µM

Q: Field request: TGI | item: Cn1c([N+](=O)[O-])cnc1C=C1C(=O)c2ccccc2C1=O
A: 77.7 µM

Q: Return reported TGI; argument: CN(C)CCN(c1ccccn1)c1ccccn1
A: > 100 µM

Q: Sample COc1cc2oc(-c3ccc(O)cc3)cc(=O)c2c(O)c1C1OC(CO)C(O)C(O)C1O (configuration not stated) — what was its TGI?
A: > 100 µM

Q: Looking for the measured TGI of Cc1ccc(O)cc1Nc1ccnc2ccc(S(C)(=O)=O)cc12 , can you help?
A: > 25 µM

Q: Quick one: TGI for CCN=c1sc2c(n1NC(=O)c1cc3ccc1CCc1ccc(cc1)CC3)C(=O)c1ccccc1C2=O ?
A: 2.64 µM

Q: What does the data say about its TGI? Entry: CCOC(=O)C1C(c2ccc(Cl)cc2Cl)NC(c2ccc(C)cc2)C(C(=O)OC)S1(=O)=O (configuration not stated)
A: > 100 µM

Q: Dear colleague, I am looking for the recorded TGI of the following molecule: COc1ccc2nc(NC(=O)/C(C#N)=C/c3ccccc3)sc2c1
A: > 100 µM

Q: # TGI lookup, item CCOC(=O)c1c(N2CCCC2)[nH]c(=O)c(C(c2ccc(OC)cc2)c2c(O)c(C(=O)OCC)c(N3CCCC3)[nH]c2=O)c1O
A: > 100 µM

Q: Any idea what its TGI is? The molecule is O=C1[C@@H]2C(c3c(Cl)cccc3Cl)=NO[C@@H]2C(=O)N1c1ccc(Cc2ccc(N3C(=O)[C@H]4C(c5c(Cl)cccc5Cl)=NO[C@H]4C3=O)cc2)cc1
A: > 100 µM

Q: Quick one: TGI of COc1cc2nc(-c3ccc(Cl)cc3)cc(OCCCN3CCOCC3)c2cc1OC ?
A: 2.84 µM

Q: Fill blank: measured TGI of the molecule S=C(Cc1ccc2c(c1)Sc1ccccc1O2)N1CCOCC1 is ____.
A: > 100 µM

Q: Form field: reported TGI of C[C@]12CC[C@H]3[C@@H](CCC4=CC(=O)CC[C@@]43C)[C@@H]1CC[C@@H]2c1csc(N)n1
A: 4.2 µM

Q: What measured TGI goes with COc1cc2c(N3CCN(C(=O)Nc4ccc(OC(C)C)cc4)CC3)ncnc2cc1OCCCN1CCCCC1 ?
A: 27.9 µM

Q: Please report the recorded TGI for CC(=O)NNc1nc(C)c(C(=O)NNC(=O)C(=O)Nc2ccc([N+](=O)[O-])cc2[N+](=O)[O-])s1 .
A: > 100 µM

Q: GET /values?readout=TGI&item= O=CC(I)=C(c1ccccc1)c1ccccc1
A: 31.6 µM

Q: Which TGI is listed for CN(C)C(=O)C(F)(F)C(c1ccc(F)cc1)C1C(=O)N(C)C(=O)N(C)C1=O (configuration not stated) ?
A: > 100 µM

Q: Please report the recorded TGI for NC1=CC(=O)c2c(O)ccc(O)c2C1=O .
A: 40.9 µM

Q: Suppose we examine the molecule CNC(=O)c1ncccc1Nc1nc(Nc2cc3c(cc2OC)CCCN3C(=O)CN(C)C)nc2[nH]ccc12 ; what TGI value has been reported?
A: 5.94 µM

Q: Recorded TGI of NS(=O)(=O)c1nnc(NC(=O)N(c2ccccc2)c2ccccc2)s1 , please.
A: > 100 µM

Q: What does the record list as TGI for O=C1C=CC2(O[C@H](c3ccccc3)[C@@H](c3ccccc3)O2)[C@H](Sc2ccccc2O)C1 ?
A: 15.6 µM

Q: Give its TGI value. Item: CCn1c2c(c3ccccc3c1=O)C(=O)c1ccccc1-2
A: > 100 µM

---

# System: MDA-MB-435
# test.summary: NCI tumour cell line growth inhibition, 48 h
measured.parameter: TGI (nM)
Field: numeric (nM). Do not append units.

Q: Could you share which TGI value was measured for CN(C)CCn1c(=O)c2ccc(NCCCN(C)CCCNc3ccc4c(=O)n(CCN(C)C)c(=O)n5c6ccc(O)cc6c(=O)c3c45)c3c(=O)c4cc(O)ccc4n(c1=O)c23 ?
A: 180

Q: What TGI value was documented for this compound, COc1ccc2sc3c(NCCCN)nc4ccccc4c3c(=O)c2c1 ?
A: 3210

Q: May I ask what TGI has been recorded for CC(=O)c1ccc(Oc2c3ccccc3nc3ccccc23)cc1 ?
A: 10500

Q: Quick one: TGI of Nc1nc2c(c3cnccc13)C(c1ccc(Cl)c(Cl)c1)Cc1cnccc1-2 (centres undefined) ?
A: 646

Q: Which TGI is listed for CNC(=O)c1ncccc1Nc1nc(Nc2cc3c(cc2OC)CCCN3C(=O)CN(C)C)nc2[nH]ccc12 ?
A: 1780

Q: Entry under review: O=C1/C(=C/c2ccc(Cl)c(Cl)c2)CN(C(=O)CCN2CCC(=NO)CC2)C/C1=C\c1ccc(Cl)c(Cl)c1 . Reported TGI?
A: 2120
